Origin of values: patent US20220289698A1

# goat ATGL inhibition [% inhibition at 50 μM listing for each entry below
- Test system: goat ATGL
- Assay Procedure: Goat ATGL inhibition, Expi lysates + CGI-58
- Assay type: biochemical
Quick note: give the figure in %, leave out the unit.

Data request: Endpoint output: goat ATGL inhibition [% inhibition at 50 μM of CCOc1ccc(-c2nc(C(=O)OCc3ccc(Br)s3)cs2)cc1 . Value?
Data returned: 40

Data request: // returns reported goat ATGL inhibition [% inhibition at 50 μM for input CCOc1ccc(-c2nc(C(=O)OCc3ccc(Cl)s3)cs2)cc1
Data returned: 40

Data request: Can you look up the measured goat ATGL inhibition [% inhibition at 50 μM of COc1cc(C(=O)OC(C)C)nc(-c2ccc(OC(C)C)cc2)c1 for me?
Data returned: 0

Data request: Consider the molecule C#C[C@H](C)OC(=O)c1csc(-c2ccc(OCC)cc2)n1 and give its measured goat ATGL inhibition [% inhibition at 50 μM.
Data returned: 20

Data request: Which goat ATGL inhibition [% inhibition at 50 μM is reported for this molecule? CCOc1ccc(-c2nc(C(=O)OCc3ccoc3)cs2)cc1
Data returned: 50

Data request: Given the entry CCOc1ccc(-c2nc(C(=O)OCc3cccs3)cs2)cc1 , report its measured goat ATGL inhibition [% inhibition at 50 μM.
Data returned: 0

---

// reported pIC50 per item
- Target: human ATGL (Homo sapiens)
- Construct: made in house; host or cells: Expi cells (lysate, not purified)
- Sequence (Q96AD5 1-504): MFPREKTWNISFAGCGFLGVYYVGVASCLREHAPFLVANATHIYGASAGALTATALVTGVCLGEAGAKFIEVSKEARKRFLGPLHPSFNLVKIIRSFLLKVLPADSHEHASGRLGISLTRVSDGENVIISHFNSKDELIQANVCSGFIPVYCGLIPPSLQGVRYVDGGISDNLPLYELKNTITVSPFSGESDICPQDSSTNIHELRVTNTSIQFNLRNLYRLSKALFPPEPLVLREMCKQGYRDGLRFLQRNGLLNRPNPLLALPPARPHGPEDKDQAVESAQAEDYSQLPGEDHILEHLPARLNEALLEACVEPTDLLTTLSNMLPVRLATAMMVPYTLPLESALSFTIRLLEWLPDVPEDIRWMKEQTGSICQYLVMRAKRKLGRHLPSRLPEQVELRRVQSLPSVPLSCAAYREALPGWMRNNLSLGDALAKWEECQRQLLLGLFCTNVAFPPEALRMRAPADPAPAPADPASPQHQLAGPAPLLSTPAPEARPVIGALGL
- Assay Procedure: TG hydrolase activity, Expi cell lysates expressing human ATGL + CGI-58, radiolabelled triolein
- Format: biochemical
- Experimental Context: Example 237; read-out: Inhibition of human ATGL − IC50
Scale for pIC50: -log10 of concentration given in mol/L; no unit attached.

CCOc1ccc(-c2nc(C(=O)OCC3CC3)cs2)cc1 [Example 136] ... 4.70
CCCCCCCOc1ccc(-c2cccc(C(=O)OC(C)C)n2)cc1 [Example 86] ... 5.82
CCC(C)c1ccc(-c2cc(OC)cc(C(=O)OC(C)C)n2)cc1 (stereo not shown) [Example 56] ... 5.15
COc1ccc(C#Cc2ccc(-c3cccc(C(=O)OC(C)C)n3)cc2)cc1 [Example 92] ... 5.52
COCc1ccc(-c2cc(OC)cc(C(=O)OC)n2)cc1 [Example 40] ... 5.00

Data request: Find the measured pIC50: item CCOC(=O)c1cccc(-c2ccc(-c3ccccn3)cc2)n1 [Example 48] , target or system human ATGL (Homo sapiens).
Data returned: 4.60

Data request: Give pIC50 (human ATGL (Homo sapiens)) of the following compound: COCCOc1ccc(-c2cccc(C(=O)OC(C)C)n2)cc1 [Example 11]
Data returned: 5.30

---

- Target: UniProt:Q96AD5
- Assay Procedure: Ki determination, human ATGL lysates with increasing substrate concentrations
- Experimental Context: non-linear regression
- Method: For determination of Ki values, lysates from Expi cells overexpressing human ATGL were incubated with recombinant purified ATGL co-activator CGI-58 and ATGL inhibitors at a single concentration dependent on the previously determined IC50. Increasing concentrations of substrate containing radiolabeled triolein were added and liberated FA were extracted and quantified by liquid scintillation. […] Ki was determined via non-linear regression analysis. Samples were measured in triplicates.
# Ki per entry
Quick note: give the figure in nM, leave out the unit.

CCCCCCOc1ccc(-c2cccc(C(=O)OC(C)C)n2)cc1 ... 830
CC(C)OC(=O)c1cccc(-c2ccc(C(F)(F)F)cc2)n1 ... 2500
C#CC(C)OC(=O)c1csc(-c2ccc(OCC)cc2)n1 (stereo not drawn) ... 210
CCCc1ccc(-c2cc(OC)cc(C(=O)OC(C)C)n2)cc1 ... 550
COCc1ccc(-c2cc(OC)cc(C(=O)OC(C)C)n2)cc1 ... 420

Please turn your attention to the following entry.
Data request: What value of Ki has been recorded for this entry: CCOc1ccc(-c2cc(OC)cc(C(=O)OC(C)C)n2)cc1
Data returned: 500

---

We begin with a simple list: items and their reported pIC50.
- System: differentiated SGBS adipocytes
- Assay Procedure: Isoproterenol-stimulated lipolysis in differentiated SGBS adipocytes
- Type: cell-based
- Experimental Context: Homo sapiens, 2 h pretreatment, 1 μM isoproterenol 1 h, fatty acid release, read-out: IC50 SGBS FA release
Scale: negative log10 of molar concentration, which is what pIC50 denotes.

Please review the entries below; each comes with its answer.
CCCOc1ccc(-c2nc(C(=O)OCC)cs2)cc1 ... 5.52
CCOc1ccc(-c2nc(C(=O)OCc3ccsc3)cs2)cc1 ... 5.52
CCOc1ccc(-c2nc(C(=O)OCc3ccoc3)cs2)cc1 ... 6.10

Data request: Sample C#C[C@@H](C)OC(=O)c1csc(-c2ccc(OCC)cc2)n1 — what was its pIC50?
Data returned: 6.05

---

Experimental Endpoint: melting point

Here are 8 compounds together with their reported answers.
CCCCCCOc1ccc(-c2cccc(C(=O)OC(C)C)n2)cc1 ... 68 to 70 °C
COc1cc(C(=O)OC(C)C)nc(-c2ccc(C(F)(F)F)cc2)c1 ... 55 to 56 °C
CCCCc1ccc(-c2cccc(C(=O)OC(C)C)n2)cc1 ... 51 to 55 °C
CC(C)OC(=O)c1cccc(-c2ccc(OC3CCCCO3)cc2)n1 (centres unmarked) ... 105 to 107 °C
CCOC(=O)c1csc(-c2ccc(C)cc2)n1 [Example 184, Ethyl 2-(p-tolyl)thiazole-4-carboxylate] ... 39 to 41 °C
CCOC(=O)c1csc(-c2ccc(C(C)(C)C)cc2)n1 ... 50 to 52 °C
CCOC(=O)c1ccc(-c2cccc(C(=O)OC(C)C)n2)cc1 ... 56 to 62 °C
COC(=O)c1cccc(-c2ccc(C(F)(F)F)cc2)n1 ... 95 to 96 °C

Data request: Given CC(C)OC(=O)c1cccc(-c2ccc(C#Cc3ccccc3)cc2)n1 , state its recorded melting point.
Data returned: 136 to 143 °C

Data request: Recorded melting point for COc1cc(C(=O)OC2CCC2)nc(-c2ccc(OC(C)C)cc2)c1 , please?
Data returned: 116 to 118 °C

Data request: Looking for the measured melting point of CCOc1ccc(-c2cccc(C(=O)OCCCOC)n2)cc1 , can you help?
Data returned: 36 to 38 °C

Data request: Dear colleague, I am looking for the recorded melting point of the following compound: CCOc1ccc(-c2cccc(C(=O)OCCCO)n2)cc1
Data returned: 61 to 63 °C

---

- Target: human ATGL (Homo sapiens)
- Construct: made in house; host or cells: Expi cells (lysate, not purified)
- Assay Procedure: TG hydrolase activity, Expi cell lysates expressing human ATGL + CGI-58, radiolabelled triolein
- Type: biochemical
- Experimental Context: Example 237; read-out: Inhibition of human ATGL − IC50
Experimental Endpoint: IC50 (µM)
# output: bare number, implied unit µM

Below: 3 compounds and their reported IC50.
CCOC(=O)c1cccc(-c2ccc(COC(C)=O)cc2)n1 ... 20
CCCc1ccc(-c2cc(OC)cc(C(=O)OC(C)C)n2)cc1 ... 1.5
C#CCOC(=O)c1csc(-c2ccc(OCC)cc2)n1 ... 3

Now consider the entry below.
Data request: Quick check: IC50 of CCOc1ccc(-c2nc(C(=O)OC3CCOC3)cs2)cc1 (stereo not shown) ?
Data returned: 3

---

- Target: murine ATGL (Mus musculus)
- Construct: made in house; host or cells: Expi cells (lysate)
- Sequence (Q8BJ56 whole entry): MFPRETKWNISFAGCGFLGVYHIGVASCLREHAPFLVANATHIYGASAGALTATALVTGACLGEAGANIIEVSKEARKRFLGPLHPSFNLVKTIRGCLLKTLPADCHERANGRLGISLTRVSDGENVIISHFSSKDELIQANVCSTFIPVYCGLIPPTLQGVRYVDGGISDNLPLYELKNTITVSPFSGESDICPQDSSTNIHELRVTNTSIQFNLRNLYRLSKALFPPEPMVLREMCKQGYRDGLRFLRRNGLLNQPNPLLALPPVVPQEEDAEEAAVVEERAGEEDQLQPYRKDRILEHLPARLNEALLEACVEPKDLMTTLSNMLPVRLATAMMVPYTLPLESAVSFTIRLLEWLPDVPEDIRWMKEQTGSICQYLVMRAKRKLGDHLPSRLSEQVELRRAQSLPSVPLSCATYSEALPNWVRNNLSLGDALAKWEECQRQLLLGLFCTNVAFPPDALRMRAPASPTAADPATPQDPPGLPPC
- Assay Procedure: TG hydrolase activity, Expi lysates expressing mouse ATGL + CGI-58, radiolabelled triolein
- Format: biochemical
- Experimental Context: 50 μM compound; Example 237; read-out: Inhibition of murine ATGL at 50 μM − mean [%]
- Protocol: Triglyceride (TG) hydrolase activity was measured as previously described (Schweiger M et al., Methods in Enzymology, 2014, 538:171-93). In brief, TG hydrolase activity was determined by adding recombinant purified CGI-58 to Expi cell lysates expressing human ATGL. […] After centrifugation at 800 g for 15 min the radioactivity in the upper phase was determined by liquid scintillation counting and the rate of FA hydrolysis was calculated. […] Samples were measured as duplicates. […]
Parameter: inhibition at 50 µM. Scope: all listed entries.
Report only the number, with the unit % understood.

# annotated cases, reported inhibition at 50 µM shown
CCOc1ccc(-c2nc(C(=O)OCC3CC3)cs2)cc1 ... 9.8
CC(C)OC(=O)c1cccc(-c2ccc(-c3nc4ccccc4n3-c3ccccc3)cc2)n1 ... 0
CCOc1ccc(-c2cccc(C(=O)OC(C)(C)C)n2)cc1 ... 0
CCCCCOc1ccc(-c2nc(C(=O)OCC)cs2)cc1 ... 0
C=C(C)COC(=O)c1csc(-c2ccc(OCC)cc2)n1 ... 40.5

Data request: Entry under review: CCOc1ccc(-c2cc(OC)cc(C(=O)OC)n2)cc1 . Reported inhibition at 50 µM?
Data returned: 23.1

Data request: Given the molecule CCCCCOc1ccc(-c2cccc(C(=O)OC(C)C)n2)cc1 , what is its reported inhibition at 50 µM?
Data returned: 0

Data request: Quick one: inhibition at 50 µM for CCOC(=O)c1csc(-c2ccc(SC)cc2)n1 ?
Data returned: 37.3

Data request: Suppose we examine the molecule CC(C)OC(=O)c1cccc(-c2ccc(F)cc2)n1 ; what inhibition at 50 µM value has been reported?
Data returned: 10.9

Data request: Recorded inhibition at 50 µM of CCOC(=O)c1csc(-c2ccc(OC)cc2)n1 , please.
Data returned: 21.5

Data request: Any idea what inhibition at 50 µM was measured for CC(C)OC(=O)c1cccc(-c2ccc(C(=O)N(C)C)cc2)n1 ?
Data returned: 6.2
